- Test system: Staphylococcus aureus
- protocol_summary: Antibacterial activity against Staphylococcus aureus MTCC 3160 after 24 hrs
- Assay type: functional
observed_property: MIC (µg/mL)

[in] Endpoint output: MIC of O=C(CNC(=O)c1ccccc1)NN1C(=O)CSC1c1ccccc1Cl (stereo not given) . Value?
[out] 12.5

(I) CCN(CC)c1ccc(C2SCC(=O)N2NC(=O)CNC(=O)c2ccccc2)cc1 (stereo not given)
(II) O=C(CNC(=O)c1ccccc1)NN1C(=O)CSC1c1ccc(Br)cc1 (stereo not given)
[in] Which gives the smaller MIC number: I or II ? Pick one; state its label.
[out] II
(II: 6.51 µg/mL, I: 12.4 µg/mL)

(1) Cc1ccc(C2SCC(=O)N2NC(=O)CNC(=O)c2ccccc2)cc1 (stereo not given)
(2) O=C(CNC(=O)c1ccccc1)NN1C(=O)CSC1c1cccc([N+](=O)[O-])c1 (stereo not given)
[in] From the recorded data, which exceeds the other in MIC: 1 or 2 ? Pick one; state its label.
[out] 2
